Please go through the items and note down their Kd.
# Measurement target: T1, PUF4 RNA-binding domain (Saccharomyces cerevisiae, UniProt P25339 537-888)
# T1 sequence: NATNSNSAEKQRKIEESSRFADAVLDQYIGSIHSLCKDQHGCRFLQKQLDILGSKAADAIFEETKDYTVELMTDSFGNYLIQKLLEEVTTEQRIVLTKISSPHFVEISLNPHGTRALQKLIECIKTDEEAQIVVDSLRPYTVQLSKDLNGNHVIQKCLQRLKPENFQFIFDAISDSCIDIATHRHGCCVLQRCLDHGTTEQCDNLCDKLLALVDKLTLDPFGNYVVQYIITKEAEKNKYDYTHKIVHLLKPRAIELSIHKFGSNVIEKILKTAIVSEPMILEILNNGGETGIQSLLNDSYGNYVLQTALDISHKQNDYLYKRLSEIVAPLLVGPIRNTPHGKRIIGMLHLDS
# Test description: Mg; RNA-MaP; 20 mM Na-HEPES pH 7.4, 30 mM KOAc, 0.75 mM MgCl2, 0.1% Tween-20, 5% glycerol, 0.1 mg/mL BSA, 2 mM DTT; 25 C; 0.0125-409.6 nM protein
# Stated conditions: tags: N-His6-TEV cleaved; C-SNAP kept, Cy3B-labelled; label: tethered on chip by stalled RNA polymerase

Below, each entry is followed by its recorded Kd result.
UCUCUUUGACUAUAUCUCUU (ssRNA) [Ib_S1_P3E.1_K3.1_C3.1_H3.1_[T3A]_[A4C]_A3.1_F3.1_T3.1]: > 2300 nM
UCUCUUUGCAUAUAAUCUCUU (ssRNA) [Ib_S1_P4E.1_K4.1_C4.1_H4.1_[T3C]_A4.1_F4.1_[T8A]_T4.1]: > 2300 nM

Here's the next entry for you.
Ask | Let me know recorded Kd for UCUCUUCAACACUAUUACUUCUCUU (ssRNA) [Id_ii_S1_P4E.4_K4.3_C4.2_[T-1A]_H4.3_A4.1_F4.1_T4.2_[G10C]] , thanks.
Reply | > 2300 nM

All figures here come from paper PMC9352680.
